- tested target: human recombinant 6His-Nterm SHP2 full-length (Thr2-Arg593) (Homo sapiens, UniProt Q06124)
- Construct: 6His-Nterm SHP2 full-length (Thr2-Arg593, R&D system); 6His (N)
- Sequence (Q06124 2-593): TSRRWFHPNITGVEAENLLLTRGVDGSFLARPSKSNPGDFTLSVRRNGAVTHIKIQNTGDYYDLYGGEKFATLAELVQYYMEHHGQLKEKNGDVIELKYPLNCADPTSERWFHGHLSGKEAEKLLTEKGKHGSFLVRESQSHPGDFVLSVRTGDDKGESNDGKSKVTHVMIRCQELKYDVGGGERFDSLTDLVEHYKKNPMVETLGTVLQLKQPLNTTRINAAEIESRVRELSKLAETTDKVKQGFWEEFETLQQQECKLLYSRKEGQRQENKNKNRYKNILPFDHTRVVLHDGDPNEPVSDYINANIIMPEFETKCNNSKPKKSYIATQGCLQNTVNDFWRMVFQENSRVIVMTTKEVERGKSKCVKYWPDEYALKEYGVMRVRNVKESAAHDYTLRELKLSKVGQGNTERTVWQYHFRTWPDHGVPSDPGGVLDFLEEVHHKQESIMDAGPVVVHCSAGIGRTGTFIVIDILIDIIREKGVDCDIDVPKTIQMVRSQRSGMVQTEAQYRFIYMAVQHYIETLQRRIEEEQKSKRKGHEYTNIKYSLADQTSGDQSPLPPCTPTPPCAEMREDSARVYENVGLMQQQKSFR
- measurement description: SHP2 Phosphatase Assay (DiFMUP fluorescence)
- condition summary: SHP2 0.2 nM pre-incubated with 100 nM bi-phosphorylated activating peptide; compound 1000-0.05 nM, 30 min pre-incubation; DiFMUP 20 µM, 45 min, room temperature; 10-concentration dose-response
Where a name gives a salt, the structure may show the parent alone.
Let's look at some compounds and their measured IC50.
observed property: IC50 (nM)

[[record]]
compound = "Cc1nc(N2CCC3(CC2)Cc2ncccc2[C@H]3N)c2ccnn2c1-c1ccc(C#N)cc1F [Compound 206]"
result_number = 12

[[record]]
compound = "Cc1nc(N2CCC3(CC2)[C@H](N)c2ccccc2N3C)c2ccnn2c1-c1ccccc1F [Compound 155]"
result_number = 202

[[record]]
compound = "Cc1nc(N2CCC3(CC2)Cc2ncc(F)cc2[C@H]3N)c2ccnn2c1-c1ccc2nccnc2c1Cl [Compound 79, hydrochloride]"
result_number = 10

[[record]]
compound = "COc1ccc2c(c1)[C@@H](N)C1(CCN(c3nc(C)c(-c4cnn(C)c4Cl)n4nccc34)CC1)C2 [Compound 126, hydrochloride]"
result_number = 4


Source: patent EP4227307A1
